# test_system: human Claudin-6 (CLDN6) (human) (UniProt P56747)
# measurement_protocol: FACS, limiting dilution, UMUC4 cells
measure_name: FACS signal at 1000 nM
Kindly provide the number alone.

response.value for AB S7 (antibody, V domains shown) VH: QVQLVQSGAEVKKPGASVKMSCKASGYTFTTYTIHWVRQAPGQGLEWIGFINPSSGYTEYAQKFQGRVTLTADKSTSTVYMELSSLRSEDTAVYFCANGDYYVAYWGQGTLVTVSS VL: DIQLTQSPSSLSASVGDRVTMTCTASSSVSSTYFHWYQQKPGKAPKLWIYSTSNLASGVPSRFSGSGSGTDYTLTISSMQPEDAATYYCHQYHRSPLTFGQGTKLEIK (field: FACS signal at 1000 nM) = 37300

response.value for AB S1 (antibody, V domains shown) VH: EVQLLESGGGLVQPGGSMRLSCAASGFTFSNYWMNWVRQAPGKGLEWIAQIRLKSDNYATHYTDSVKGRFTISRDDSKRTVYLQMNSLRAEDTGTYYCSDGPPSGSWGQGTLLTVSS VL: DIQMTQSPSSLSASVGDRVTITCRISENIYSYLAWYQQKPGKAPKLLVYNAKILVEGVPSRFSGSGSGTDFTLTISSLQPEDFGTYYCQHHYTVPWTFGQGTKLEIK (field: FACS signal at 1000 nM) = 41500

response.value for AB S11 (antibody, V domains shown) VH: QVQLVQSGAEVKKPGASVKMSCKASGYTFTTYTIHWVRQAPGQGLEWIGVINPSSGYTEYAQKFQGRVTLTADKSTSTVYMELSSLRSEDTAVYFCANGDYYVAYWGQGTLVTVSS VL: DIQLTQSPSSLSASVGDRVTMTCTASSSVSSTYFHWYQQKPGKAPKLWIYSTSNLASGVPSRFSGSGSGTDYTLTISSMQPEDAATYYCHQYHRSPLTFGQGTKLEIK (field: FACS signal at 1000 nM) = 33400

response.value for AB S4 (antibody, V domains shown) VH: EVQLLESGGGLVQPGGSMRLSCAASGFTFSNYWMNWVRQAPGKGLEWIAQIRLKSDNYATHYTDSVKGRFTISRDDSKSTVYLQMNSLRAEDTGTYYCNDGPPSGSWGQGTLLTVSS VL: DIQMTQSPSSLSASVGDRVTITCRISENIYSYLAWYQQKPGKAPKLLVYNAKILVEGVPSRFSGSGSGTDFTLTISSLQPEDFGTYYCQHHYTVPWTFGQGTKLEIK (field: FACS signal at 1000 nM) = 35000

response.value for AB S3 (antibody, V domains shown) VH: EVQLLESGGGLVQPGGSMRLSCAASGFTFSNYWMNWVRQAPGKGLEWIAQIRLKSDNYVTHYTDSVKGRFTISRDDSKRTVYLQMNSLRAEDTGIYYCSDGPPSGSWGQGTLLTVSS VL: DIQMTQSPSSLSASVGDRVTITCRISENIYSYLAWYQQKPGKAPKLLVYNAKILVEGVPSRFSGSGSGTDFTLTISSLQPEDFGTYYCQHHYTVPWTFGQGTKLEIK (field: FACS signal at 1000 nM) = 45300
